// provenance: paper PMC4072508

Target: T1, Bfl-1, Q16548
T1 chain: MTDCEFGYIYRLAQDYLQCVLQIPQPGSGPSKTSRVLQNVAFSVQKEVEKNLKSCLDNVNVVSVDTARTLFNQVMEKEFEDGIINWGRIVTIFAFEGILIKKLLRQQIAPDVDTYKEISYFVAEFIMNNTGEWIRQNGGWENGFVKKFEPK
Experiment: peptide SPOT array, c-Myc-tagged receptor at 1 uM or 100 nM, anti-c-Myc-Cy3
READOUT_KIND: SPOT signal as a fraction of Bim BH3's signal on the same receptor and array

Example binders with recorded SPOT signal as a fraction of Bim BH3's signal on the same receptor and array:
Fill in SPOT signal as a fraction of Bim BH3's signal on the same receptor and array for record PAKKMTLSEIDRWICDNFPYYKNAGI [FOXJ2]
0.26

Please report SPOT signal as a fraction of Bim BH3's signal on the same receptor and array for the following binder: ERLKGQLCDVLLIVLDQKFRAHKNVL [ZNF295]
0.19

I: LALLAQPSHLDRQVARSVFGHICSHL [MYBBP1A]
II: MRSQLGKATADAIMGDKLWWADQVSE [LRP1]
III: EVKQSMSSQSLDKAAEDMPEAEQDLE [APBA1]
IV: VTLLSEVEKMLSNFGDCVQYKEIVKN [SYNE1]
V: ADVHGIWSRLDCDFGDEFEVLDTTGE [UBA6]
Please list the entries, largest SPOT signal as a fraction of Bim BH3's signal on the same receptor and array first. // format: requested-order list of labels
I, II, IV, V, III
